system: 388556-164-R-J1-PDC complex spheroid viability; assay: Anticancer human tumor 388556-164-R-J1-PDC patient-derived colon adenocarcinoma cell line growth inhibition [RAS]; settings: second compound 1 µM; first compound 0.3 µM; stronger effect = lower value;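 further: spheroids exposed to compound for 7 days before readout; 100% = DMSO vehicle control luminescence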
Listed here: items and their measured viability, T/C.

CC1(C)CCC(Nc2ncc(C(F)(F)F)c(-c3c[nH]c4c(P(C)(C)=O)c(C#N)ccc34)n2)CN1 (centres undefined) + C#Cc1c(F)ccc2cc(O)cc(-c3ncc4c(N5CC6CCC(C5)N6)nc(OCC56CCCN5CC(F)C6)nc4c3F)c12; 84.2%
CCc1c2c(nc3ccc(O)cc13)-c1cc3c(c(=O)n1C2)COC(=O)[C@]3(O)CC + C#Cc1c(F)ccc2cc(O)cc(-c3ncc4c(N5CC6CCC(C5)N6)nc(OCC56CCCN5CC(F)C6)nc4c3F)c12; 23.3%
CCc1c2c(nc3ccc(O)cc13)-c1cc3c(c(=O)n1C2)COC(=O)[C@]3(O)CC + C=CC(=O)N1CCN(c2nc(OCC3CCCN3C)nc3c(F)c(-c4nc(N)cc(C)c4C(F)(F)F)c(Cl)cc23)C(C)C1; 28.8%

Here's the next entry for you.
## Task Return reported viability, T/C; argument: CC1(C)CCC(Nc2ncc(C(F)(F)F)c(-c3c[nH]c4c(P(C)(C)=O)c(C#N)ccc34)n2)CN1 (centres undefined) + C=CC(=O)N1CCN(c2nc(OCC3CCCN3C)nc3c(F)c(-c4nc(N)cc(C)c4C(F)(F)F)c(Cl)cc23)C(C)C1
## Result 85%
